Each recorded value in this set is attributed to PubChem BioAssay AID449762.

Kindly supply the reported inhibition values for the records listed here.
- experiment notes: M. tuberculosis growth inhibition, HTS (AID 449762);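 also: bacterial growth assessed after seven days of incubation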
- experimental parameters: M. tuberculosis H37Rv growth inhibition, 7H9 media; at 25 µM; active compounds read high
Hit rate of the full screen: of about 330,000 compounds, about 1,900 (0.58%) were called active. About 4% were inconclusive and are not listed. The list is a sample of the results. Measured potencies and affinities stand elsewhere.
State the answer as a number, implicitly in %.

Query (compound): COc1ccc2cc(C#N)c(N3CCN(C(=O)c4ccccc4C)CC3)nc2c1 ; field requested: inhibition
11.1

Query (compound): CCCc1nc2ccccc2c(C(=O)O)c1CC ; field requested: inhibition
2.61

Query (compound): CCOC(=O)c1ccc(-c2c(-c3cc(OC)c(OC)c(OC)c3)noc2C)cc1F ; field requested: inhibition
8.43

Query (compound): COCCNC(=S)N/N=C(\C)c1ccc(O)cc1 ; field requested: inhibition
-0.19

Query (compound): CC(=O)c1ccc(NC(=O)CSc2cn[nH]n2)cc1 ; field requested: inhibition
4.87

Query (compound): C=CCNC(=O)/C(C#N)=C\c1cc(Cl)c(OCC)c(OC)c1 ; field requested: inhibition
7.41

Query (compound): COc1cccc2cc(C(=O)OCc3ccccc3)c(=O)oc12 ; field requested: inhibition
10.5

Query (compound): Cc1ccc(NC(=O)CSc2cn[nH]n2)cc1 ; field requested: inhibition
-2.03

Query (compound): CC(=O)c1cccc(NC(=O)COC(=O)C2=COCCO2)c1 ; field requested: inhibition
-0.86

Query (compound): C=Cn1nc(C)c2ccccc2c1=O ; field requested: inhibition
-3.9

Query (compound): COCCN1CSC(=S)N(Cc2ccco2)C1 ; field requested: inhibition
66.9

Query (compound): COc1ccc(CCC(=O)NCCS(=O)(=O)N2CCN(c3ccccc3F)CC2)cc1 ; field requested: inhibition
9.75

Query (compound): CCCn1cnc2c(N)c(C)c(C)cc21 ; field requested: inhibition
-11.4

Query (compound): Cc1ccccc1OCC(=O)OCC(=O)Nc1ccc2c(c1)OCCO2 ; field requested: inhibition
-7.86

Query (compound): COC(=O)COc1ccc(/C=C2/NC(=O)N(CC(=O)OC)C2=O)cc1 ; field requested: inhibition
0.75

Query (compound): COc1cc(C(C(=O)NCC2CCCO2)N(C(=O)Cn2nnc3ccccc32)c2ccc(C(C)=O)cc2)ccc1O (stereo unspecified) ; field requested: inhibition
-7.43
